Each entry below lists one item and its recorded pIC50 value.
- ASSAYED_TARGET: PI3Kα (Homo sapiens, UniProt P42336, H1047R)
- Sequence (P42336 whole entry H1047R): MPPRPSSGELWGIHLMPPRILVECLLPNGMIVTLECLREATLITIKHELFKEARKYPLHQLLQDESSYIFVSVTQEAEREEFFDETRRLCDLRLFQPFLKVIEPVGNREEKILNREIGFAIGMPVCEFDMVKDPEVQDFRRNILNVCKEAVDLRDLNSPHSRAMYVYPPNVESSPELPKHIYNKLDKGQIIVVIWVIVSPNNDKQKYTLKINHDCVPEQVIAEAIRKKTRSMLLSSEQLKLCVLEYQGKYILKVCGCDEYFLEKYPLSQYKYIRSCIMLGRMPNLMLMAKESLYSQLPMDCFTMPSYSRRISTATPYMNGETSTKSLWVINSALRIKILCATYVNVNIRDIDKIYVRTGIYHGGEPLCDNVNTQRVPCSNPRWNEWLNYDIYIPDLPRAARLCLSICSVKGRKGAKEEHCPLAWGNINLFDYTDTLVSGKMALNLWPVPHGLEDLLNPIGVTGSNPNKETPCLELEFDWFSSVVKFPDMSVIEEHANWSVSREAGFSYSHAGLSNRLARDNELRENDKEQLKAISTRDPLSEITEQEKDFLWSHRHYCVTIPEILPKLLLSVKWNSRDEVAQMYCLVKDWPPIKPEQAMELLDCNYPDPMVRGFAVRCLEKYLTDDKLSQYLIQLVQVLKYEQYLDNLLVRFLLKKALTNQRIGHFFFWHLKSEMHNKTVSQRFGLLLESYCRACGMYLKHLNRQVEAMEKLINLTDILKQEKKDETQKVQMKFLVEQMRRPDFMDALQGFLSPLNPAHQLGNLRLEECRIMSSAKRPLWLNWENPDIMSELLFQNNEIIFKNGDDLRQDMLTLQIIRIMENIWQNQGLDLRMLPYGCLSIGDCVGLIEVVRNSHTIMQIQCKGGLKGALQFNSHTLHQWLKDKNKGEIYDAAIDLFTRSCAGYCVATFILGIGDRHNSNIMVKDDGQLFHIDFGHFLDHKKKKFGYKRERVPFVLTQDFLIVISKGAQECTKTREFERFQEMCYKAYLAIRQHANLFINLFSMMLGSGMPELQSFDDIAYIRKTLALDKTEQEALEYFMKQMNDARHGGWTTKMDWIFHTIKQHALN
- Sequence (P27986 whole entry partner): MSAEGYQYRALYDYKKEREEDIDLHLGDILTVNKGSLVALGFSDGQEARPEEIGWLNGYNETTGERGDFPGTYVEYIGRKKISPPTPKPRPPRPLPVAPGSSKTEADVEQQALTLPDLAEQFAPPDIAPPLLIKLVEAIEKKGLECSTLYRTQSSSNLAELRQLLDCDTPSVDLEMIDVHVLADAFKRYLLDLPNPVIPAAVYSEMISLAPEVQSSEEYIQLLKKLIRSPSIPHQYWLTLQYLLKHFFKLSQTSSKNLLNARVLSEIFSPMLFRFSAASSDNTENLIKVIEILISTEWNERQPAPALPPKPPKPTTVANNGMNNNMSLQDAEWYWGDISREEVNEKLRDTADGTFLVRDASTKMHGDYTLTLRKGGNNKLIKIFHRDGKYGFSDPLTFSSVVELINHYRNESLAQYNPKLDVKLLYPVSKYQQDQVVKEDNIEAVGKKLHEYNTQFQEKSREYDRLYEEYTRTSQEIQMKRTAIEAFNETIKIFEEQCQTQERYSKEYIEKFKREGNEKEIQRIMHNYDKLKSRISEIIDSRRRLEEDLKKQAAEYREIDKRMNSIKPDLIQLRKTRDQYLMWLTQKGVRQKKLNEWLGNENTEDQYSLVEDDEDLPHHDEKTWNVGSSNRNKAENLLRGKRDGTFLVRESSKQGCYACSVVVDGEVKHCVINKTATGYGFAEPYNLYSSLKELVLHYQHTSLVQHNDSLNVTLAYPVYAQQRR
- METHOD_SUMMARY: ADP-Glo IC50 assay
- CONDITION_CONTEXT: class symbols; key not given
pIC50: −log10 of the molar value.

INSERT INTO results (molecule, assayed_target, result) VALUES
  ('Cc1cc([C@H](C)Nc2ccccc2C(=O)O)c2oc(N3CCN(C(=O)CCCCCCCNc4cccc5c4C(=O)N(C4CCC(=O)NC4=O)C5=O)CC3)cc(=O)c2c1 (stereo partly shown)', 'PI3Kα (Homo sapiens, UniProt P42336, H1047R)', '5.00 to 6.00'),
  ('Cc1ccccc1Nc1ncc(C(=O)NCCCCCNc2ccc3c(c2)C(=O)N(C2CCC(=O)NC2=O)C3=O)cc1NC(=O)c1csc2ccccc12 (stereo not shown)', 'PI3Kα (Homo sapiens, UniProt P42336, H1047R)', '> 7.00'),
  ('O=C(CCCCCCCNC(=O)c1cnc(Nc2cc(F)ccc2Cl)c(NC(=O)c2csc3ccccc23)c1)NCc1ccc2c(c1)CN(C1CCC(=O)NC1=O)C2=O (stereo not shown)', 'PI3Kα (Homo sapiens, UniProt P42336, H1047R)', '6.30 to 7.00');

Which pIC50 value is on record for O=C1CCC(N2Cc3cc(C(=O)NCCCCCCCCCNC(=O)c4cc(NC(=O)c5cc(F)cc(C(F)(F)F)c5)c5c(c4)C(=O)N[C@H]5c4cc(F)ccc4Cl)ccc3C2=O)C(=O)N1 (stereo partly shown) ?
> 7.00
